- target: human adenosine A2B receptor (Homo sapiens)
- Construct: host or cells: HEK-293 (stably transfected)
- Sequence (P29275 whole entry): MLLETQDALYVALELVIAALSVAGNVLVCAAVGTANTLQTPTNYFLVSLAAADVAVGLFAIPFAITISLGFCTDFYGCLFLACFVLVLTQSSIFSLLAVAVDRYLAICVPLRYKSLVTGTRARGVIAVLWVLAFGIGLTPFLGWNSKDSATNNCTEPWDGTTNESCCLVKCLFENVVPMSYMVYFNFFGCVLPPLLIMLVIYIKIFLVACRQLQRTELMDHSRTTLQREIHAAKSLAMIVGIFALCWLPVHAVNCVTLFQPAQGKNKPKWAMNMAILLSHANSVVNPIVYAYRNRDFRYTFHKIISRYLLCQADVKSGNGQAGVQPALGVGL
- assay overview: Adenosine A2B Receptor cyclic AMP GS Assay
- Type: cell-based
pEC50: −log10 of the molar value.
parameter: pEC50

Entry Cc1ncoc1-c1c(-c2cccc(C#N)c2)nc(N)c2nc(C(N)c3c(F)cccc3F)nn12 (single isomer, unassigned) under human adenosine A2B receptor (Homo sapiens) had pEC50 of > 8.00
